Assay: AUC (0 to 8 hrs) in fasted Sprague Dawley rat at 10 mg/kg, po measured for 8 hrs by HPLC analysis
Assay type: ADME, organism-based
Design: dose 10 mg/kg, time 8 hrs, route po
Details: in vivo

{"columns": ["molecule", "AUC(0-t) at 8 h, µg·h/mL"],
 "data": [
  ["CC(C(=O)O)c1ccc(-c2ccccc2)c(F)c1 (configuration not stated) [FLURBIPROFEN]", 130],
  ["[2H]c1c([2H])c([2H])c(-c2c([2H])c([2H])c(C(C)C(=O)O)c([2H])c2F)c([2H])c1[2H] (configuration not stated)", 144]
]}

====

Assay: Tmax in fasted Sprague Dawley rat at 10 mg/kg, po measured for 8 hrs by HPLC analysis
Format: ADME, organism-based
Details: in vivo
measurement_type: Tmax (min)

{"columns": ["compound", "unit_tag", "observed_value"],
 "data": [
  ["CC(C(=O)O)c1ccc(-c2ccccc2)c(F)c1 (configuration not stated) [FLURBIPROFEN]", "min", 30],
  ["[2H]c1c([2H])c([2H])c(-c2c([2H])c([2H])c(C(C)C(=O)O)c([2H])c2F)c([2H])c1[2H] (configuration not stated)", "min", 60]
]}

====

Below, each entry is listed alongside its reported clearance.
Assay: Clearance in Sprague Dawley rat at 1 mg/kg, iv measured for 8 hrs by HPLC analysis
Format: ADME, organism-based
Details: in vivo
measurement_type: clearance (mL/min/kg)

{"columns": ["molecule", "observed_value"],
 "data": [
  ["[2H]c1c([2H])c([2H])c(-c2c([2H])c([2H])c(C(C)C(=O)O)c([2H])c2F)c([2H])c1[2H] (configuration not stated)", 0.217],
  ["CC(C(=O)O)c1ccc(-c2ccccc2)c(F)c1 (configuration not stated)", 0.216]
]}
